TEST READOUT: melting point

Task: Request the reported melting point associated with [C-]#[N+]c1cccc(-c2cn(-c3ccc(Cl)nc3)nn2)c1 [Compound 1G]
Output: 202.2 to 203.6 °C

Task: Then c1cncc(-c2cn(-c3cccnc3)nn2)c1 [Compound 1B] ?
Output: 217 to 219 °C

Task: Then N#Cc1cccc(-n2cc(-c3ccc(Cl)nc3)nn2)c1 [Compound 1H] ?
Output: 219.3 to 220 °C

Task: Then Fc1ccc(-n2cc(-c3cccnc3)nn2)cc1 [Compound 1S] ?
Output: 179.9 to 190.9 °C

Task: Then Fc1cccc(Cl)c1-n1cc(-c2cccnc2)nn1 [Compound 1I] ?
Output: 94.5 to 97.1 °C

Task: Then Fc1cccc(Cl)c1-c1cn(-c2cccnc2)nn1 [Compound 1E] ?
Output: 94 to 95.2 °C

Task: Then COc1ccc(-c2cn(-c3cccnc3)nn2)cn1 [Compound 1N] ?
Output: 205.6 to 206.9 °C

Task: Then Fc1cncc(-c2cn(-c3cccnc3)nn2)c1 [Compound 1L] ?
Output: 190.2 to 191.6 °C

Task: Then Brc1cncc(-n2cc(-c3cccnc3)nn2)c1 [Compound 1Q] ?
Output: 226.2 to 227.8 °C

* * *

The following molecules are listed with their measured melting point values.

Solved cases below.
Fc1cncc(-n2cc(-c3cccnc3)nn2)c1 [Compound 1O]	190.6 to 191.7 °C
Fc1ccc(-c2cn(-c3cccnc3)nn2)cn1 [Compound 1M]	187 to 188.7 °C
N#Cc1cccc(-n2cc(-c3cccnc3Cl)nn2)c1 [Compound 1J]	181 to 182.6 °C

Task: Request the reported melting point associated with Fc1ccc(-n2cc(-c3cccnc3)nn2)cn1 [Compound 1P]
Output: 221.3 to 222.6 °C

Task: Then [C-]#[N+]c1cccc(-c2cn(-c3cccnc3Cl)nn2)c1 [Compound 1K] ?
Output: 184 to 185 °C

Task: Then Fc1cccc(-n2cc(-c3cccnc3)nn2)c1 [Compound 1R] ?
Output: 156.3 to 158.2 °C
